// reported cytotoxicity at 70.5 h for each item listed
# procedure_text: Human HepG2 cell viability assay in 384 well format
# Format: toxicity, cell-based
# Set-up: dose 125 nL, time 70.5 hour; concentration not given beside the values
# condition_context: HepG2 cells, read-out: Inhibition
The answer is to be given in %; state only the numeric part.

INSERT INTO assay_data (molecule, measured) VALUES
  ('CC(C)(O)CN1CCC(=O)N(Cc2ccco2)Cc2cc(F)ccc21', 3.68),
  ('c1cncc(Cc2nnc3n2CCN(CC2CCCNC2)CC3)c1 (configuration not stated)', -14),
  ('COc1ccc(CN2CCC3(CCCN(c4ncc(F)cn4)C3)C2)cc1 (configuration not stated)', 50.3),
  ('CNC(=O)[C@@H](c1ccccc1OC)N1CCC[C@H]1C(=O)NC1CC1', -1.71),
  ('CC(C)[C@@H]1CN(Cc2cnc3c(S(C)(=O)=O)cnn3c2)C[C@H]1N(C)C', -7.81);

Sample c1ccc(-c2nc(CN3CCCC3Cn3cccn3)no2)cc1 (configuration not stated) — what was its cytotoxicity at 70.5 h?
1.06

Sample COc1ccc(Br)cc1CN(C)C(C)c1nc(C)no1 (configuration not stated) — what was its cytotoxicity at 70.5 h?
-20.1

Sample Cn1cnc2c1C(COCC1CCOCC1)CN(C(=O)c1ccoc1)C2 (configuration not stated) — what was its cytotoxicity at 70.5 h?
11.3

Sample CS(=O)(=O)N1CCN(Cc2csc(-c3ncccn3)n2)CC1 — what was its cytotoxicity at 70.5 h?
15.5

Sample Cc1ccc2c(c1)N(C(=O)C1CCCOC1)CCC2 (configuration not stated) — what was its cytotoxicity at 70.5 h?
-4.9

Sample Cc1cc(NC(=O)NCc2ccc(C)s2)no1 — what was its cytotoxicity at 70.5 h?
-8.73

Sample CCc1nc(CN2CCN(C(=O)N3CCCCC3)CC2)cs1 — what was its cytotoxicity at 70.5 h?
21.4

Sample c1cncc(-c2ccc3c(c2)C2(CCNCC2)CC3)c1 — what was its cytotoxicity at 70.5 h?
52.4

Sample CCc1ncnc2c1CCN(Cc1ccc(OC)cc1)CC2 — what was its cytotoxicity at 70.5 h?
-8.97

Sample O=C(c1cccc(F)c1)N1CCN2C[C@H](OCc3cccnc3)C[C@H]2C1 — what was its cytotoxicity at 70.5 h?
-19

Sample c1csc(-c2nc(CN3CCCC3Cn3cncn3)co2)c1 (configuration not stated) — what was its cytotoxicity at 70.5 h?
-10.5

Sample NC(=O)CC1CCCN(c2cncc(OCc3ccccc3)n2)C1 (configuration not stated) — what was its cytotoxicity at 70.5 h?
21.3

Sample CCn1cc(NS(=O)(=O)c2ccc(F)cc2)c(C(=O)NCC(C)C)n1 — what was its cytotoxicity at 70.5 h?
-1.23

Sample CCn1cnnc1CNC(=O)N1CCCN(C(C)=O)CC1 — what was its cytotoxicity at 70.5 h?
-11.8

Sample CC(Cn1cccn1)NS(=O)(=O)Cc1ccc(F)cc1 (configuration not stated) — what was its cytotoxicity at 70.5 h?
5.43

Sample O=C1CC(c2ccncc2)C2(CCN(CCc3ccccc3)CC2)N1 (configuration not stated) — what was its cytotoxicity at 70.5 h?
-6.87

Sample CCCOc1ncccc1CNc1nnc(C)c(C)c1C#N — what was its cytotoxicity at 70.5 h?
21.8

Sample c1coc(-c2nnc(CN3CCCC(CN4CCCCCC4)C3)o2)c1 (configuration not stated) — what was its cytotoxicity at 70.5 h?
-1.85

Sample O=C(NCCc1cc(N2CCOCC2)nc(NC2CC2)n1)C1CC1 — what was its cytotoxicity at 70.5 h?
-14

Sample COc1ncccc1C(=O)Nc1cccc(C[S+](C)[O-])c1C (configuration not stated) — what was its cytotoxicity at 70.5 h?
-6.07

Sample CC(C)(C)CCCC(=O)NS(=O)(=O)CC1CC1 — what was its cytotoxicity at 70.5 h?
-0.428

Sample NC(=O)C(NC(=O)COC1CCCC1)c1ccccc1 (configuration not stated) — what was its cytotoxicity at 70.5 h?
-6.85

Sample Cn1nnc2c1C(COCC1CC1)CN(Cc1ccoc1)C2 (configuration not stated) — what was its cytotoxicity at 70.5 h?
-9.19

Sample Cn1cc(C2COC3(CCN(C(=O)c4ccc(F)cc4)CC3)C2)cn1 (configuration not stated) — what was its cytotoxicity at 70.5 h?
-2.41

Sample Cc1ccc(NC(=O)Nc2cnc(N3CCN(C)CC3)nc2)c(Cl)c1 — what was its cytotoxicity at 70.5 h?
3.18

Sample COCC(=O)N1CC[C@@H]2O[C@@H](COCC3CCOCC3)CC[C@@H]21 — what was its cytotoxicity at 70.5 h?
12.6

Sample Cc1ccc(NC(=O)Nc2c[nH]c(=O)[nH]c2=O)c(C)c1 — what was its cytotoxicity at 70.5 h?
11.8

Sample Cc1ccc(-c2noc(CN3CCOC(Cn4cccn4)C3)n2)cc1 (configuration not stated) — what was its cytotoxicity at 70.5 h?
-3.88

Sample CC1CCc2nc(O)c(C(=O)NCc3ccccc3F)cc2C1 (configuration not stated) — what was its cytotoxicity at 70.5 h?
7.1

Sample COc1cc(C(=O)N2CCCC(CNS(C)(=O)=O)C2)cc(OC)c1C (configuration not stated) — what was its cytotoxicity at 70.5 h?
-13.5

Sample CN(C)C(=O)C1OC2(CCN(C(=O)c3ccco3)CC2)c2ccccc21 (configuration not stated) — what was its cytotoxicity at 70.5 h?
-16.7

====

# procedure_text: Human HepG2 cell viability assay in 384 well format
# Format: toxicity, cell-based
# Set-up: dose 125 nL, time 70.5 hour; concentration not given beside the values
# condition_context: HepG2 cells, read-out: Inhibition
// reported cytotoxicity at 70.5 h for each item listed
The answer is to be given in %; state only the numeric part.

Solved cases (5 shown):
INSERT INTO measurements (compound, property, measured) VALUES
  ('O=C(NCc1csc(Br)c1)Nc1cn[nH]c1', 'cytotoxicity at 70.5 h', 39.3),
  ('Cn1cc(CC2CC(=O)N(Cc3ccc(OC(F)F)cc3)C2=O)cn1 (configuration not stated)', 'cytotoxicity at 70.5 h', 3.06),
  ('O=C(NCCn1nc(C2CCNC2)c2cccnc21)C1CCC1 (configuration not stated)', 'cytotoxicity at 70.5 h', 2.22),
  ('CC(CN1CCOC1=O)NC(=O)c1cccc(C#N)c1 (configuration not stated)', 'cytotoxicity at 70.5 h', -3.83),
  ('CCC(CC)c1cc(CNC(=O)N2CCOC(C)C2)on1 (configuration not stated)', 'cytotoxicity at 70.5 h', -9.44);

Sample CCOCc1cnc2n1CCN(C(=O)Cc1ccco1)C2C (configuration not stated) — what was its cytotoxicity at 70.5 h?
-6.58

Sample O=C1CCC2(CCN(c3ncc(F)cn3)CC2)N1CCN1CCCC1 — what was its cytotoxicity at 70.5 h?
25.9

====

// reported cytotoxicity at 70.5 h for each item listed
# procedure_text: Human HepG2 cell viability assay in 384 well format
# Type: toxicity, cell-based
# Design: dose 125 nL, time 70.5 hour; concentration not given beside the values
# condition_context: HepG2 cells, read-out: Inhibition
The answer is to be given in %; state only the numeric part.

Solved cases (3 shown):
INSERT INTO results (compound, unit_of_measure, measured) VALUES
  ('Cc1nn(C)c(N2CCOCC2)c1CNCC1CCN(C2CC2)C1 (stereo unspecified)', '%', 15.8),
  ('COc1ncccc1N(C)C(=O)Cn1cc(-c2ccccc2)nn1', '%', -4.75),
  ('CN1CC[C@H]2OCC[C@@]2(C(=O)NCCc2ccccn2)C1', '%', 21.6);

Sample COCCn1cnc2ccc(NC(=O)CCCn3cccn3)cc2c1=O — what was its cytotoxicity at 70.5 h?
-7.81

Sample Cn1cc(C(=O)N2CCCC(CN3CCCC3=O)C2)cn1 (stereo unspecified) — what was its cytotoxicity at 70.5 h?
-7.83

Sample Cc1ncc(C(=O)Nc2cncnc2N(C)C)c(Cl)c1Cl — what was its cytotoxicity at 70.5 h?
-9.76

====

# procedure_text: Human HepG2 cell viability assay in 384 well format
# Assay type: toxicity, cell-based
# Set-up: dose 125 nL, time 70.5 hour; concentration not given beside the values
# condition_context: HepG2 cells, read-out: Inhibition
property: cytotoxicity at 70.5 h (%)
The answer is to be given in %; state only the numeric part.

Sample O=C(CCn1cccn1)N1CC[C@@H](c2ccc3ccccc3c2)[C@H](O)C1 — what was its cytotoxicity at 70.5 h?
3.07

Sample Cc1n[nH]c(C)c1CNc1ccc(-c2nc(C3CC3)no2)cn1 — what was its cytotoxicity at 70.5 h?
-0.0598

Sample CN(CCCNC(=O)CN1CCS(=O)(=O)CC1)c1ccccc1 — what was its cytotoxicity at 70.5 h?
-6.59

Sample O=C(c1ccc(O)nc1)N1CCN(C(=O)c2ccc(F)cc2F)CC1 — what was its cytotoxicity at 70.5 h?
-7.11

Sample CCOc1ccc(CC(=O)N2CCN(c3nccn3CC)CC2)cc1 — what was its cytotoxicity at 70.5 h?
-1.22

Sample Cn1cccc1C(=O)N1CCC2(CC1)COC(COc1ccccn1)C2 (stereo not given) — what was its cytotoxicity at 70.5 h?
-6.63

Sample CNS(=O)(=O)CCCN1CCCC1c1noc(C)n1 (stereo not given) — what was its cytotoxicity at 70.5 h?
-3.7

Sample CN(C)C(=O)c1cnc2n1CCN(Cc1cccc(C#N)c1)C2 — what was its cytotoxicity at 70.5 h?
-7.44
